From: patent US20210380703A1

Catalogue of optical density readings, one per entry.
target: Human Fc (human); test: ELISA; negative control
quantity-kind: optical density (OD)

1) 371_C06 (antibody, V domains shown) VH: EVQLLESGGGLVQPGGSLRLSCAASGFTFSSYSMNWVRQAPGKGLEWVSSINYNGGYTSYADSVKGRFTISRDNSKNTLYLQMNSLRAEDTAVYYCARGATWHDTHLDYWGQGTLVTVSS VL: DIQMTQSPSSLSASVGDRVTITCRASQSISSYLNWYQQKPGKAPKLLIYAVTSRASGVPSRFSGSGSGTDFTLTISSLQPEDFATYYCQQSYDLPLTFGGGTKVEIK = 0.308
2) 368_C11 (antibody, V domains shown) VH: EVQLLESGGGLVQPGGSLRLSCAASGFTFSDYSMNWVRQAPGKGLEWVSSINYNSGYKSYADSVKGRFTISRDNSKNTLYLQMNSLRAEDTAVYYCARGATWHDTHLDYWGQGTLVTVSS VL: DIQMTQSPSSLSASVGDRVTITCRASQSIISYLNWYQQKPGKAPKLLIYAATSRASGVPSRFSGSGSGTDFTLTISSLQPEDFATYYCQQSYDNPLTFGGGTKVEIK = 0.275
3) 366_D08 (antibody, V domains shown) VH: EVQLLESGGGLVQPGGSLRLSCAASGFTFSSYGMHWVRQAPGKGLEWVSNINYNGGYKSYADSVKGRFTISRDNSKNTLYLQMNSLRAEDTAVYYCARGATWHDTHLDYWGQGTLVTVSS VL: DIQMTQSPSSLSASVGDRVTITCRASQSILSYVNWYQQKPGKAPKLVIYAATSLASGVPSRFSGSGSGTDFTLTISSLQPEDFATYYCQQSYENPLTFGGGTKVEIK = 0.312
4) 370_H04 (antibody, V domains shown) VH: EVQLLESGGGLVQPGGSLRLSCAASGFTFSSYSMNWVRQAPGKGLEWVSNINYNGGYTGYADSVKGRFTISRDNSKNTLYLQMNSLRAEDTAVYYCARGATWHDTHLDYWGQGTLVTVSS VL: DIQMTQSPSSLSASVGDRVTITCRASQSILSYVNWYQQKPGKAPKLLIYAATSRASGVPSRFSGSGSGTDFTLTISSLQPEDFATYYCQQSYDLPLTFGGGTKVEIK = 0.596
5) 367_D09 (antibody, V domains shown) VH: EVQLLESGGGLVQPGGSLRLSCAASGFTFDSYGMNWVRQAPGKGLEWVASINYNGGYKSYADSVKGRFTISRDNSKNTLYLQMNSLRAEDTAVYYCARGATWHDTHLDYWGQGTLVTVSS VL: DIQMTQSPSSLSASVGDRVTITCRASQSILTYLNWYQQKPGKAPKLLIYAATSLASGVPSRFSGSGSGTDFTLTISSLQPEDFATYYCQQSYDNPLTFGGGTKVEIK = 0.381
6) 376_H11 (antibody, V domains shown) VH: EVQLLESGGGLVQPGGSLRLSCAASGFTFDSYSMNWVRQAPGKGLEWVSNINYNGGYTGYADSVKGRFTISRDNSKNTLYLQMNSLRAEDTAVYYCARGANWHDTALDYWGQGTLVTVSS VL: DIQMTQSPSSLSASVGDRVTITCRASQSISRYLNWYQQKPGKAPKLLIYAVTSLASGVPSRFSGSGSGTDFTLTISSLQPEDFATYYCQQSYESPLTFGGGTKVEIK = 0.325
7) 365_H11 (antibody, V domains shown) VH: EVQLLESGGGLVQPGGSLRLSCAASGFTFSSYSMNWVRQAPGKGLEWVSGINYNSGYTGYADSVKGRFTISRDNSKNTLYLQMNSLRAEDTAVYYCARSANWHDTALDYWGQGTLVTVSS VL: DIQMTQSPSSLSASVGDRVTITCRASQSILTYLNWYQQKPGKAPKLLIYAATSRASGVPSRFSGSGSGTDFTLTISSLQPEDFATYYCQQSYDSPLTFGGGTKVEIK = 0.375
8) 371_F09 (antibody, V domains shown) VH: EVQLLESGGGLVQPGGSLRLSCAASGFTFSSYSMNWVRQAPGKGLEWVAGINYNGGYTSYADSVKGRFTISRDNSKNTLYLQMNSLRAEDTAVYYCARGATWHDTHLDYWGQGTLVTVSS VL: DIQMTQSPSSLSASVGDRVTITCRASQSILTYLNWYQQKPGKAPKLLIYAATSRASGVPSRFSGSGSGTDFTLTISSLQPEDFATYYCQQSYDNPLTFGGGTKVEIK = 0.602
9) 367_D05 (antibody, V domains shown) VH: EVQLLESGGGLVQPGGSLRLSCAASGFTFSDYSMNWVRQAPGKGLEWVSSINYNGGYKSYADSVKGRFTISRDNSKNTLYLQMNSLRAEDTAVYYCARGATWHDTHLDYWGQGTLVTVSS VL: DIQMTQSPSSLSASVGDRVTITCRASQSIISYVNWYQQKPGKAPKLVIYAATSLASGVPSRFSGSGSGTDFTLTISSLQPEDFATYYCQQSYDSPLTFGGGTKVEIK = 0.265
10) 373_F07 (antibody, V domains shown) VH: EVQLLESGGGLVQPGGSLRLSCAASGFTFSSYSMNWVRQAPGKGLEWVSGINYNSGYKSYADSVKGRFTISRDNSKNTLYLQMNSLRAEDTAVYYCARGATWHDTHLDYWGQGTLVTVSS VL: DIQMTQSPSSLSASVGDRVTITCRASQSILSYLNWYQQKPGKAPKLLIYAATSLASGVPSRFSGSGSGTDFTLTISSLQPEDFATYYCQQSYETPLTFGGGTKVEIK = 0.172
